Values compiled from the supplement of paper PMC10567573.

B1: LARP4 (parent)
chain: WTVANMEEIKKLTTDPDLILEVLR

Variants of: B1
EXPERIMENT SUMMARY: protein stability index of a GFP-peptide fusion (GPS, HEK-293T) (PSI 1-6); higher = more stable;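 further: lentivirally expressed fusions sorted by FACS into six bins by GFP to DsRed ratio, PSI derived from sequencing read proportions per bin multiplied by bin number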
CONDITION PARAMETERS: c terminus: a fixed tail appended
OUTCOME MEASURE: protein stability index

INSERT INTO measurements (variant_label, number) VALUES
  ('T14L', 1.99),
  ('M6E', 2.67),
  ('I19P', 3.42),
  ('W1G', 2.63),
  ('D17N', 1.93),
  ('L18E', 3.67),
  ('W1I', 2.25),
  ('K11G', 2.22),
  ('L18A', 2.71),
  ('V22R', 2.48),
  ('E21V', 1.86),
  ('P16L', 2.21),
  ('R24M', 1.47),
  ('I19W', 2.47),
  ('E7Q', 2.28),
  ('R24G', 2.65),
  ('A4T', 1.97),
  ('T2L', 2.08),
  ('E7I', 1.94),
  ('L20Y', 2.17),
  ('E21H', 1.58),
  ('D17I', 1.25);
